Target: HLA-A*02 (Homo sapiens, UniProt P04439, D140Y/D185E/D98H/E176V/E277Q/G131W/G231S/I119V/I121R/I166T/I218V/L300P/N151K/N90K/P208A/P217A/Q86G/Q94H/R138H/R169H)
Assay: MHC binding assay by UV-ligand exchange and beta2m ELISA
Conditions: peptide exchange yield
quantity_name: Peptide exchange

2 (SMLGEEIQL; listed as Homo sapiens) [compound 2]: ++++ (>75% = ++++)
22 (SLYDSIAFI; listed as Homo sapiens) [compound 22]: ++++ (>75% = ++++)

----------
Target: HLA-A*02 (Homo sapiens, UniProt P04439, D140Y/D185E/D98H/E176V/E277Q/G131W/G231S/I119V/I121R/I166T/I218V/L300P/N151K/N90K/P208A/P217A/Q86G/Q94H/R138H/R169H)
Assay: MHC binding assay by UV-ligand exchange and beta2m ELISA
Conditions: peptide exchange yield
quantity_name: Peptide exchange

Please review the entries below; each comes with its answer.
4 (ALLTFVWKL; listed as Homo sapiens) [compound 4]: ++++ (>75% = ++++)
3 (HLLEDIAHV; listed as Homo sapiens) [compound 3]: ++++ (>75% = ++++)
15 (KMDEASAQLLA; listed as Homo sapiens) [compound 15]: +++ (>50 = +++)
6 (ALLESRVNL; listed as Homo sapiens) [compound 6]: ++++ (>75% = ++++)
10 (TLWRGPVVV; listed as Homo sapiens) [compound 10]: +++ (>50 = +++)
11 (YLEEECPAT; listed as Homo sapiens) [compound 11]: ++ (>20% = ++)
13 (AMAPNHAVV; listed as Homo sapiens) [compound 13]: +++ (>50 = +++)
21 (YLNDSLRHV; listed as Homo sapiens) [compound 21]: ++ (>20% = ++)
53 (YLLKDKGEYTL; listed as Homo sapiens) [compound 53]: +++ (>50 = +++)

Exercise: Sample 9 (GMLNEAEGKAIKL; listed as Homo sapiens) [compound 9] — what was its Peptide exchange?
Key: +++ (>50 = +++)

----------
System: CD8+ T cells
Test: In vitro T-cell priming assay with aAPCs loaded with peptide/MHC and anti-CD28, multimer readout
Format: cell-based, human
Details: in vitro immunogenicity, Table 15A; positive wells
quantity_name: wells

Please review the entries below; each comes with its answer.
29 (RYGSPINTF; listed as Homo sapiens) [compound 29]: + (<20% = +)
35 (IYTRVTYYL; listed as Homo sapiens) [compound 35]: ++ (20%-49% = ++)
17 (RLGIKPESV; listed as Homo sapiens) [compound 17]: ++ (20%-49% = ++)
34 (AFSPDSHYLLF; listed as Homo sapiens) [compound 34]: + (<20% = +)

Then there is this substance:
Exercise: Sample 42 (TYIGQGYII; listed as Homo sapiens) [compound 42] — what was its wells?
Key: + (<20% = +)

----------
System: HLA-A*24
Test: MHC binding assay by UV-ligand exchange and beta2m ELISA
Parameters: species or system human
Conditions: peptide exchange yield
quantity_name: Peptide exchange

Please review the entries below; each comes with its answer.
58 (GYIDKVRQL; listed as Homo sapiens) [compound 58]: ++ (>20% = ++)
36 (RYMWINQEL; listed as Homo sapiens) [compound 36]: +++ (>50 = +++)
31 (AYTSPPSFF; listed as Homo sapiens) [compound 31]: +++ (>50 = +++)
45 (RYFKTPRKF; listed as Homo sapiens) [compound 45]: ++ (>20% = ++)
59 (IYPDVTYAF; listed as Homo sapiens) [compound 59]: +++ (>50 = +++)

Then there is this substance:
Exercise: Sample 28 (YYAKEIHKF; listed as Homo sapiens) [compound 28] — what was its Peptide exchange?
Key: ++++ (>75% = ++++)
